The measurements presented in this section are drawn from ChEMBL document CHEMBL3272030.

- System: Calf thymus DNA
- assay_remarks: Binding affinity to calf thymus DNA assessed as decrease in DNA sedimentation coefficient at 5.2 x 10^-6 M relative to untreated control
- Type: nucleic-acid assay
- measurement_parameters: Bos taurus
quantity_kind: Ratio

molecule=COc1ccc2nc3cc(Cl)ccc3c(NC3CC(C)(C)N([O])C(C)(C)C3)c2n1 numeric_readout=1.05
molecule=CC1(C)CC(Nc2c3ccccc3nc3ccccc23)CC(C)(C)N1[O] numeric_readout=1.04
molecule="COc1ccc2nc3cc(Cl)ccc3c(NCC3CC(C)(C)N([O])C3(C)C)c2c1 (stereo not given)" numeric_readout=1.04
molecule=COc1ccc2nc3cc(Cl)ccc3c(NC3CC(C)(C)N([O])C(C)(C)C3)c2c1 numeric_readout=1.02
molecule="CC1(C)CC(CNc2c3ccccc3nc3ccccc23)C(C)(C)N1[O] (stereo not given)" numeric_readout=1.08

----------
Activity for assorted compounds
- experimental_system: Bacterial DNA-directed RNA polymerase (Bacteria) (UniProt P0A8V2+P0A7Z4+P0A8T7+P0A800)
- Sequence (P0A7Z4 whole entry partner): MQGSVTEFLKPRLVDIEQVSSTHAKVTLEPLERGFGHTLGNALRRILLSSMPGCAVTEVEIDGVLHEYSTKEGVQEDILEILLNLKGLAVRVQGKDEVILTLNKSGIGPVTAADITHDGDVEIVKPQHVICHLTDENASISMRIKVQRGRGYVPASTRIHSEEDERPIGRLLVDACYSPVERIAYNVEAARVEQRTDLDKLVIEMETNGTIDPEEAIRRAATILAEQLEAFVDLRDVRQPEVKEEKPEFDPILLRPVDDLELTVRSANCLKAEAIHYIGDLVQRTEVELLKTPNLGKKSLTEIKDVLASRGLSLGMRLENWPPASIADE
- Sequence (P0A800 2-91 partner limits assumed): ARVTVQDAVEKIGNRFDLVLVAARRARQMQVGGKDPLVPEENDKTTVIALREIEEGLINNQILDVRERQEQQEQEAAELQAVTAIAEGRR
- Sequence (P0A8T7 whole entry partner): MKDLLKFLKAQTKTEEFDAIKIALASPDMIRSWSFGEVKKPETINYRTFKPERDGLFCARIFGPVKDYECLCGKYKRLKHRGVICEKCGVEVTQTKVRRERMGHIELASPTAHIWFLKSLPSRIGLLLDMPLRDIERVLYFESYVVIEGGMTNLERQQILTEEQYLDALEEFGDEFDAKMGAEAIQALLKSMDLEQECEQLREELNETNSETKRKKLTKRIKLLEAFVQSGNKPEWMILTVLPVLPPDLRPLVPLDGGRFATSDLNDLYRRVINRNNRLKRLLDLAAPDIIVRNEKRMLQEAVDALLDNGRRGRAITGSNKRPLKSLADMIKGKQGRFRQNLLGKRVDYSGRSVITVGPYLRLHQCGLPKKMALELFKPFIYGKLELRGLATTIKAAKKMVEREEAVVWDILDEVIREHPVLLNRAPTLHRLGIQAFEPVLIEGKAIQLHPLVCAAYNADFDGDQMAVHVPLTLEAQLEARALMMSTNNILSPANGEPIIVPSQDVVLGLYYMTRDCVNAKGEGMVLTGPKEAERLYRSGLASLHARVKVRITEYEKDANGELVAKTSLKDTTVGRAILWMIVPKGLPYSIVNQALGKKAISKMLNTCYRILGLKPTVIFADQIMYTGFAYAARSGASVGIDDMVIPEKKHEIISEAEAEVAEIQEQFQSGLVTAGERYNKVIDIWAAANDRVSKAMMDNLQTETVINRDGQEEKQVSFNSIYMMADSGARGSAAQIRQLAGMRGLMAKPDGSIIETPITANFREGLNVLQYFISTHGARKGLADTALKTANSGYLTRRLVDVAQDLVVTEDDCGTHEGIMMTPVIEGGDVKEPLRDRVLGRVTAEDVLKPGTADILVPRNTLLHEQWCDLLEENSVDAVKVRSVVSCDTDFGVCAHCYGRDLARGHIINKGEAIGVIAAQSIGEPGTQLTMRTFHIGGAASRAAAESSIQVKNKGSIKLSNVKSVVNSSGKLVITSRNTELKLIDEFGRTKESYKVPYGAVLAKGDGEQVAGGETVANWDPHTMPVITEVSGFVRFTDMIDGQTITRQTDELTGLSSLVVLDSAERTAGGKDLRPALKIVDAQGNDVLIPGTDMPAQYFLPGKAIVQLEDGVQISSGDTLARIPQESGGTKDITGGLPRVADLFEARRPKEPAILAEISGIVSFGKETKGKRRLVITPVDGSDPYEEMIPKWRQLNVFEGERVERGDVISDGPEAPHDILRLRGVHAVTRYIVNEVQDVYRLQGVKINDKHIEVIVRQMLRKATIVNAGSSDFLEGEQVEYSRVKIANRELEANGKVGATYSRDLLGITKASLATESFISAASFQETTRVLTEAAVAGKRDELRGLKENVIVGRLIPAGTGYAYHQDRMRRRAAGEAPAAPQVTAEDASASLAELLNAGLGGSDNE
- Sequence (P0A8V2 whole entry): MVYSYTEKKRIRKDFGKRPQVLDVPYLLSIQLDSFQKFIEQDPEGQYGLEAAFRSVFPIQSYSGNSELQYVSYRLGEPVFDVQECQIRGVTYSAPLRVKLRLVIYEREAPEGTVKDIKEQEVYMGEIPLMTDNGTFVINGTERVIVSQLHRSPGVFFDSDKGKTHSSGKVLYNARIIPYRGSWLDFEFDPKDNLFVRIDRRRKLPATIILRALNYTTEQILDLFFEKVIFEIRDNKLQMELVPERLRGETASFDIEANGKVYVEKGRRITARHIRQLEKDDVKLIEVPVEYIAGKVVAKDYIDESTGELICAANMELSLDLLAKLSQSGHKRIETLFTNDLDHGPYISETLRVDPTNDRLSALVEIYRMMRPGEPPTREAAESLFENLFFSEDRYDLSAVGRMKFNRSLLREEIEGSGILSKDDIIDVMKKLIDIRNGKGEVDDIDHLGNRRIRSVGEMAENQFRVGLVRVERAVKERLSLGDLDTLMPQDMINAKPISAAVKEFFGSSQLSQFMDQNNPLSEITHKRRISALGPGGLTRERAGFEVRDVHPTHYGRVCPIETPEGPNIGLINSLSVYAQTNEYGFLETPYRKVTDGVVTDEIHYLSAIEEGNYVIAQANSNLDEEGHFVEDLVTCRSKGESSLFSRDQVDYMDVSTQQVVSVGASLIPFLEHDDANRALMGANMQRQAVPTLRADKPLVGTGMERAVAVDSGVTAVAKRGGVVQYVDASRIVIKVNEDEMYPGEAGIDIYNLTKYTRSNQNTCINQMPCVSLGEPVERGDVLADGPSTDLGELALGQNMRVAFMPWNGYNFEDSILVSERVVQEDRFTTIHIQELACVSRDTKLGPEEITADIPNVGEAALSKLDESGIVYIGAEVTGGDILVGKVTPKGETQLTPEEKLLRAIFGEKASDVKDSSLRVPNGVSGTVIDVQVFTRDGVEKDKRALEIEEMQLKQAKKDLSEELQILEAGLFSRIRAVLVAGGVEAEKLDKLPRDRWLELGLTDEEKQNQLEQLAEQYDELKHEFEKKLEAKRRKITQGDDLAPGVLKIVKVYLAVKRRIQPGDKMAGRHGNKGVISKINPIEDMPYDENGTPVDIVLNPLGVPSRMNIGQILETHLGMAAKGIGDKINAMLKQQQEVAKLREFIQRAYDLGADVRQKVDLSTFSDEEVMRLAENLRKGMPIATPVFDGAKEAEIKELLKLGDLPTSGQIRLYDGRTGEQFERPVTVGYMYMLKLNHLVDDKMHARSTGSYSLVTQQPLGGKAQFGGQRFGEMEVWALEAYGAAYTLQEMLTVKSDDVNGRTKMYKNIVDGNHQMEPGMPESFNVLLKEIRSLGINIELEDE
- assay_remarks: Inhibition of Escherichia coli DNA-primed RNA polymerase activity using [8-14C]ATP at 400 ug/ml by scintillation counting
- Type: protein-complex assay
- Set-up: scale not given: the % may be the effect or the level left
quantity_kind: Activity (%)

compound=CC1(C)CC(Nc2c3ccccc3nc3ccccc23)CC(C)(C)N1[O] quantity_kind=Activity numeric_readout=9
compound=CC1(C)CC(NCCCNc2c3ccccc3nc3ccccc23)CC(C)(C)N1[O] quantity_kind=Activity numeric_readout=12
compound=Nc1c2ccccc2nc2ccccc12 quantity_kind=Activity numeric_readout=1.8
compound="CC1(C)CC(CNc2c3ccccc3nc3ccccc23)C(C)(C)N1[O] (centres undefined)" quantity_kind=Activity numeric_readout=10

----------
- System: L1210
- assay_remarks: Cytotoxicity against mouse L1210 cells assessed as growth inhibition at 10 ug/ml after 24 hrs
- Assay type: functional
growth inhibition (GI) for assorted compounds
quantity_kind: growth inhibition (GI) (%)

compound=CC1(C)CC(Nc2c3ccccc3nc3ccccc23)CC(C)(C)N1[O] unit_annotation=% numeric_readout=49
compound="CC1(C)CC(CNc2c3ccccc3nc3ccccc23)C(C)(C)N1[O] (stereo unspecified)" unit_annotation=% numeric_readout=46
compound=COc1ccc2nc3cc(Cl)ccc3c(NC3CC(C)(C)N([O])C(C)(C)C3)c2n1 unit_annotation=% numeric_readout=0
compound=COc1ccc2nc3cc(Cl)ccc3c(NC3CC(C)(C)N([O])C(C)(C)C3)c2c1 unit_annotation=% numeric_readout=11
compound=CC1(C)CC(NCCCNc2c3ccccc3nc3ccccc23)CC(C)(C)N1[O] unit_annotation=% numeric_readout=56
compound="COc1ccc2nc3cc(Cl)ccc3c(NCC3CC(C)(C)N([O])C3(C)C)c2c1 (stereo unspecified)" unit_annotation=% numeric_readout=35

----------
- experimental_system: Bacterial DNA-directed RNA polymerase (Bacteria) (UniProt P0A8V2+P0A7Z4+P0A8T7+P0A800)
- assay_remarks: Inhibition of Escherichia coli DNA-primed RNA polymerase activity using [8-14C]ATP at 200 ug/ml by scintillation counting
- Type: protein-complex assay
- Parameters: scale not given: the % may be the effect or the level left
Activity for assorted compounds
quantity_kind: Activity (%)

compound=Nc1c2ccccc2nc2ccccc12 experimental_system="Bacterial DNA-directed RNA polymerase (Bacteria) (UniProt P0A8V2+P0A7Z4+P0A8T7+P0A800)" quantity_kind=Activity numeric_readout=4
compound="CC1(C)CC(CNc2c3ccccc3nc3ccccc23)C(C)(C)N1[O] (centres undefined)" experimental_system="Bacterial DNA-directed RNA polymerase (Bacteria) (UniProt P0A8V2+P0A7Z4+P0A8T7+P0A800)" quantity_kind=Activity numeric_readout=22
compound=CC1(C)CC(NCCCNc2c3ccccc3nc3ccccc23)CC(C)(C)N1[O] experimental_system="Bacterial DNA-directed RNA polymerase (Bacteria) (UniProt P0A8V2+P0A7Z4+P0A8T7+P0A800)" quantity_kind=Activity numeric_readout=20
compound=CC1(C)CC(Nc2c3ccccc3nc3ccccc23)CC(C)(C)N1[O] experimental_system="Bacterial DNA-directed RNA polymerase (Bacteria) (UniProt P0A8V2+P0A7Z4+P0A8T7+P0A800)" quantity_kind=Activity numeric_readout=21

----------
growth inhibition (GI) for assorted compounds
- Tested on: L1210
- assay_remarks: Cytotoxicity against mouse L1210 cells assessed as growth inhibition at 0.01 ug/ml after 48 hrs
- Type: functional
quantity_kind: growth inhibition (GI)

compound=CC1(C)CC(Nc2c3ccccc3nc3ccccc23)CC(C)(C)N1[O] quantity_kind="growth inhibition (GI)" result=2%
compound=COc1ccc2nc3cc(Cl)ccc3c(NC3CC(C)(C)N([O])C(C)(C)C3)c2n1 quantity_kind="growth inhibition (GI)" result=0%
compound=COc1ccc2nc3cc(Cl)ccc3c(NC3CC(C)(C)N([O])C(C)(C)C3)c2c1 quantity_kind="growth inhibition (GI)" result=8%
compound="CC1(C)CC(CNc2c3ccccc3nc3ccccc23)C(C)(C)N1[O] (stereo unspecified)" quantity_kind="growth inhibition (GI)" result=3%
compound="COc1ccc2nc3cc(Cl)ccc3c(NCC3CC(C)(C)N([O])C3(C)C)c2c1 (stereo unspecified)" quantity_kind="growth inhibition (GI)" result=7%
compound=CC1(C)CC(NCCCNc2c3ccccc3nc3ccccc23)CC(C)(C)N1[O] quantity_kind="growth inhibition (GI)" result=0%
